Values were extracted from PubChem BioAssay (Tox21).

# Protocol Details: qHTS assay to identify small molecule antagonists of the androgen receptor (AR) signaling pathway using the MDA cell line - cell viability counter screen (AID 743041; note: nearly all actives have a fitted effect of over 45% in size)
# Cond: MDA-kb2 viability, CellTiter-Fluor, 16 h, cells co-treated with R1881 androgen agonist; series mostly up to 70.3 µM
Inconclusive results are not listed. Calls of active or inactive are those of the source. Calls come from the whole dose curve; as a rule, active = well fitted cell-killing curve with a large enough effect in the repeat runs; inconclusive = weak or mixed curves, or effect the other way; inactive = flat fitted curve, though single readings scatter.

{"Molecule": "[O-]/[N+](=N\\O)c1ccccc1", "outcome": "inactive"}
{"Molecule": "C1CN(SSN2CCOCC2)CCO1", "outcome": "inactive"}
{"Molecule": "CCCCCCC(C)O (stereo not drawn)", "outcome": "inactive"}

---

# Protocol Details: Caspase-3/7 induction in HepG2 cells by small molecules, qHTS cell viability counter screen (AID 1346981); note: nearly all actives have a fitted effect of over 30% in size
# Cond: CellTiter-Fluor fluorescence, 17 h; series mostly up to 92.4 µM
Inconclusive results are not listed. The source made the active and inactive calls. Calls come from the whole dose curve; as a rule, active = well fitted cell-killing curve with a large enough effect in the repeat runs; inconclusive = weak or mixed curves, or effect the other way; inactive = flat fitted curve, though single readings scatter.
Metric: outcome

{"Compound": "FC(F)(F)C(Cl)Br (stereo not drawn)", "Endpoint Value": "inactive"}
{"Compound": "CC(C)=CCO", "Endpoint Value": "inactive"}
{"Compound": "CC(=O)OC(C)C", "Endpoint Value": "inactive"}
